procedureDetails: clinical
conditionSummary: human, in vivo
We begin with a simple list: items and their reported half-life.

COc1ccc(CN2CCNCC2)c(OC)c1OC [trimetazidine, reference compound]; 8.11 to 9.35 h

Record request: half-life value, item COc1ccc(CN2CCN(CCO)CC2)c(OC)c1OC [CV-8814]
3.35 to 4.27 h

====

procedureDetails: solution stability (decomposition kinetics) in simulated GI media at 37° C. and 0.2 mg/mL, HPLC
Type: physicochemical
conditionSummary: bicarbonate-adjusted medium (BiCarb adj), BiCarb adj, pH 6-8.2 (fastest decomposition rate)
metric: half-life at 0.2 mg/mL
Quick note: number first, unit second.

Record request: half-life at 0.2 mg/mL value, item `COc1ccc(CN2CCN(CCOC(=O)c3cccnc3)CC2)c(OC)c1OC`
1.5 h
